- target desc: Son of Sevenless (SOS) (Homo sapiens, UniProt Q07889)
- Sequence (Q07889 564-1049 limits assumed): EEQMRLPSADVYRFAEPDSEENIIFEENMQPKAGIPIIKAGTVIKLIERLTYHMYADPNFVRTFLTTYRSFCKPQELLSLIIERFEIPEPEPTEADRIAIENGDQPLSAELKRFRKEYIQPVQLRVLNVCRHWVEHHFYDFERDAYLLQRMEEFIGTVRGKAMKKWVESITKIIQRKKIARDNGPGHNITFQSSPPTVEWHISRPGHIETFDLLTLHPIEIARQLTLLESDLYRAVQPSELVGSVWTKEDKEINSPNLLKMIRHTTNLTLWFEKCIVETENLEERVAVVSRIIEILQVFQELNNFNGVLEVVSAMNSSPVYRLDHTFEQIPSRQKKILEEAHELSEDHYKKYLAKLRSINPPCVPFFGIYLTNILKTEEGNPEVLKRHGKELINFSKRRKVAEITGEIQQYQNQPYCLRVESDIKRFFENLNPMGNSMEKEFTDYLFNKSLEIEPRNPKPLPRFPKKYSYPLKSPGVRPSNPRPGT
Structures can show the parent of a compound that is named as a salt.
This listing pairs molecules with measured Ki.

// known answers, use as guide
| molecule | target desc | Ki |
| --- | --- | --- |
| Cc1cc2nc(N3CCN(C)CC3)n(Cc3ccc(F)cc3)c2cc1C [Example 24, trifluoroacetate] | Son of Sevenless (SOS) (Homo sapiens, UniProt Q07889) | > 5000 nM |
| COC(=O)c1cnn(CCN(C)C)c1-c1cc(C)cc2c1nc(N1CCNCC1)n2Cc1ccc(F)c(Cl)c1 [Example 180] | Son of Sevenless (SOS) (Homo sapiens, UniProt Q07889) | 1000 to 5000 nM |
| Cc1cc2c(nc(N3CCNCC3)n2Cc2ccc(F)c(Cl)c2)c(-c2cccnc2)c1C [Example 265] | Son of Sevenless (SOS) (Homo sapiens, UniProt Q07889) | 1000 to 5000 nM |
| NCCNc1nc2ccc(Cl)cc2n1Cc1ccc(F)c(Cl)c1 [Example 74, trifluoroacetate] | Son of Sevenless (SOS) (Homo sapiens, UniProt Q07889) | 500 to 1000 nM |

Input: Please list Ki recorded for the molecule Cc1cc(Cn2c(N3CCNCC3)nc3c(-c4ccccc4C#Cc4ccccc4)cc(Cl)cc32)cc(C)c1F [Example 182, trifluoroacetate]
Output: > 5000 nM

Input: # return recorded Ki for entry Cc1cc(C2=CCNCC2)c2nc(N3CCNCC3)n(Cc3cc(C)c(F)c(C)c3)c2c1 [Example 103]
Output: < 500 nM

Input: Please list Ki recorded for the molecule CCCN1CC[C@@H](C(=O)c2ccccc2)C1c1cc(Cl)cc2c1nc(N1CCNCC1)n2Cc1ccc(F)c(Cl)c1 (stereo in doubt) [Example 154, trifluoroacetate]
Output: 1000 to 5000 nM

Input: Consider the molecule CCc1cc(Cn2c(N3CCNCC3)nc3cc(C)c(C)cc32)ccc1F [Example 50, trifluoroacetate] and give its recorded Ki.
Output: > 5000 nM

Input: Read the entry Cc1cc2c(nc(N3CCNCC3)n2Cc2ccc(F)c(Cl)c2)c(-c2ccnn2-c2ccc(C(C)C)cc2)c1C [Example 173, trifluoroacetate] and write its reported Ki.
Output: > 5000 nM

Input: Item CCCNC(=O)c1cnn(CC(C)C)c1-c1cc(C)cc2c1nc(N1CCNCC1)n2Cc1cc(C)c(F)c(C)c1 [Example 181, trifluoroacetate] : provide Ki
Output: 500 to 1000 nM

Input: Output Ki of Cc1cc(NCCCN(C)C)c2nc(N3CCNCC3)n(Cc3cc(C)c(F)c(C)c3)c2c1 [Example 197, trifluoroacetate]
Output: 500 to 1000 nM

Each recorded value in this set is attributed to patent US10501421B1.
